Source: paper PMC9101642

experiment: Plasma protein binding determination; assay type: in vitro ADME, rat; settings: rat plasma, 37 °C, 5 mg/kg; read-out: Rat PPB (%free)
METRIC: fraction unbound at 5 mg/kg bwt
Lab note: jot down the number only; don't add units.

Quick one: fraction unbound at 5 mg/kg bwt of `CC(=O)c1cc(C(=O)O[C@@H]2/C=C/C(=O)O[C@@H](O)CCC/C=C/[C@@H]3C[C@H](O)C[C@H]32)ccc1OCCN1CC(C(=O)O)=CCC1=O` ?
0.0128

For the compound CC(=O)c1cc(C(=O)O[C@@H]2/C=C/C(=O)O[C@@H](O)CCC/C=C/[C@@H]3C[C@H](O)C[C@H]32)ccc1OCCN1CCCC(O)C1=O (stereo partly shown) , what fraction unbound at 5 mg/kg bwt is on record?
0.0124

Record request: fraction unbound at 5 mg/kg bwt value, item `CC(=O)c1cc(C(=O)O[C@@H]2/C=C/C(=O)O[C@@H](O)CCC/C=C/[C@@H]3C[C@H](O)C[C@H]32)ccc1OCCN(C)C`
0.0115

Recorded fraction unbound at 5 mg/kg bwt of CC/C(=C(\c1ccc(O)cc1)c1ccc(OCCN(C)C)cc1)c1ccccc1 [Compound 4-OHT., 4-hydroxytamoxifen, reference compound] , please.
0.0185
